Molecular target: PCP receptor
Assay: Experiment of binding to PCP receptor: competitive binding with [3H] MK-801, rat cerebral cortex membrane preparation
Conditions: [3H] MK-801 2 nM, rat cerebral cortex membranes
Listing: IC50 of selected compounds

Compound: O=C(CCCN1CCC(O)(Cc2ccc(OC(F)(F)F)cc2)CC1)c1ccc(O)cc1 [Compound 10]
IC50 (µM): 20
//
Compound: CC(C(O)c1ccc(O)cc1)N1CCC(O)(c2ccccc2)CC1 (racemic) [CP-101606, reference compound]
IC50 (µM): 13
//
Compound: Cc1ccccc1CC1=CCN(CCCC(=O)c2ccc(O)cc2)CC1 [Compound 18]
IC50 (µM): 3
//
Compound: O=C(CCCN1CC=C(Cc2ccc(F)cc2)CC1)c1ccc(O)cc1 [Compound 19]
IC50 (µM): 10

---

Listing: IC50 of selected compounds
Biological target: NR1/NR2B receptor (Rattus norvegicus, UniProt P35439+Q00960)
Construct: the obtained solution was used as a membrane preparation for the experiment
Sequence (Q00960 27-1482, other chains not shown): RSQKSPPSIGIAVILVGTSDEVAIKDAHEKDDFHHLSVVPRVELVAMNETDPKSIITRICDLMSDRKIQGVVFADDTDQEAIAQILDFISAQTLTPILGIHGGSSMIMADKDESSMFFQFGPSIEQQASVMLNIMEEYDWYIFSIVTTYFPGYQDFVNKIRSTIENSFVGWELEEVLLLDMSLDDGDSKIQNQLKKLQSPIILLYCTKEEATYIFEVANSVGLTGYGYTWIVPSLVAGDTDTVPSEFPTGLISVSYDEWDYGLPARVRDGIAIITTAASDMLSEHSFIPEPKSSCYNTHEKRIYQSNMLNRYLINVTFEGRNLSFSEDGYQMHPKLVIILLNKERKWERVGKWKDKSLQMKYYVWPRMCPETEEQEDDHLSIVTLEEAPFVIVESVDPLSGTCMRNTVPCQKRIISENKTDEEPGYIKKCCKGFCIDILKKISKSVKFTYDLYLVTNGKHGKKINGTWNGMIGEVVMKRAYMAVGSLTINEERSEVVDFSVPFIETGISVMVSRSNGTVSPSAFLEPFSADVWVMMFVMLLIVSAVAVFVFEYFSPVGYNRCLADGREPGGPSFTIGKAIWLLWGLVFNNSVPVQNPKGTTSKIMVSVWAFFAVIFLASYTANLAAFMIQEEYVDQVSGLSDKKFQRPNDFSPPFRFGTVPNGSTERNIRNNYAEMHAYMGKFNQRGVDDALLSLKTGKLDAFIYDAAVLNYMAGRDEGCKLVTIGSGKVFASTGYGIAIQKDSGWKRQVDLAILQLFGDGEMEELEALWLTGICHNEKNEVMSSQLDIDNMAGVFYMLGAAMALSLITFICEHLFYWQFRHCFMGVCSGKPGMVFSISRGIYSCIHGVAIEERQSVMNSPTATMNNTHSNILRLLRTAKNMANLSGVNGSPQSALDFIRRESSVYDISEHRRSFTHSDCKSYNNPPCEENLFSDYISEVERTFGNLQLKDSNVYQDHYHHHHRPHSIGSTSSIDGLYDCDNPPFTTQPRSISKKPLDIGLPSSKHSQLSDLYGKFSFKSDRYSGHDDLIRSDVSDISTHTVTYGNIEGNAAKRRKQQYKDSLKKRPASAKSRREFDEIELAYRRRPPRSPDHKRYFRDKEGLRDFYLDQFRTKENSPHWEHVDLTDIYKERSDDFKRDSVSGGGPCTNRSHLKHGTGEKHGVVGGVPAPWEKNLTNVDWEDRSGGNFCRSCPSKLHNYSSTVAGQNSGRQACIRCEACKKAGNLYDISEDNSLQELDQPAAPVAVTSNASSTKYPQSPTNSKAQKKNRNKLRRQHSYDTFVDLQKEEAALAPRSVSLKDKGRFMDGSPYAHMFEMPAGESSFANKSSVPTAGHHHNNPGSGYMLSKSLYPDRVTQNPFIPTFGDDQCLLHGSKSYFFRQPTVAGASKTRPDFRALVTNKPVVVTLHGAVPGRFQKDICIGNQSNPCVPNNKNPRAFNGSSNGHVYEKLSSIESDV
Test: Experiment of binding to NMDA receptor: competitive binding with [3H]-Ifenprodil, rat cerebral cortex membrane preparation
Conditions: [3H]-Ifenprodil 5 nM, GBR-12909 3 μM, rat cerebral cortex membranes

Smiles entry: O=C(CCCN1CC=C(c2ccc(Cl)cc2)CC1)c1ccc(O)cc1
IC50, nM: 3
--
Smiles entry: O=C(CCCN1CCC(O)(Cc2ccc(OC(F)(F)F)cc2)CC1)c1ccc(O)cc1
IC50, nM: 16
--
Smiles entry: O=C(CCCN1CC=C(Cc2ccc(F)cc2)CC1)c1ccc(O)cc1
IC50, nM: 2
--
Smiles entry: Cc1ccccc1CC1=CCN(CCCC(=O)c2ccc(O)cc2)CC1
IC50, nM: 4
